Listing: cytochrome c release ratio of selected compounds
experiment: inhibitors of mitochondrial cytochrome c release, biochemical, purified mitochondria (AID 1603); details: stronger effect = lower value;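 note: mouse liver mitochondria challenged with calcium chloride; signal normalized to the plate average as 100%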
Measured metric: cytochrome c release ratio

Compound | Measured result
C=C1C2CC[C@H]3[C@]4(C)C[C@H](OC5OC(CO)C(OS(=O)(=O)O)C(OS(=O)(=O)O)C5OC(=O)CC(C)C)C[C@@H](C(=O)O)[C@H]4CC[C@]3(C2)[C@H]1O (stereo not given in full) | 1.3
CCOC(=O)C1C(OC(=O)c2ccccc2)CC2CCC1N2C (stereo not given) | 0.89
CC[C@@]1(O)C[C@H](O[C@H]2C[C@H](N(C)C)[C@H](O)[C@H](C)O2)c2c(cc3c(c2O)C(=O)c2c(O)cccc2C3=O)[C@H]1C(=O)OC | 3.13
CN1CC[C@]23c4c5ccc(O)c4O[C@H]2[C@H](O)C=CC3[C@H]1C5 (stereo not given in full) | 1.03
CC[n+]1c(-c2ccccc2)c2cc(N)ccc2c2ccc(N)cc21 | 0.84
Cc1cccc(C)c1NC1=NCCCS1 | 0.7
Clc1ccc(C(OCCN2CCCCC2)c2ccccc2)cc1 (stereo not given) | 1.33
NC1C[C@H]1c1ccccc1 (stereo not given in full) | 0.57
CN1CCc2cc3c(cc2C1O)OCO3 (stereo not given) | 0.81
C#CC1(O)CCC2C3CCC4=CC(=O)CCC4(C)C3CCC21C (stereo not given) | 0.95

Data provenance: PubChem BioAssay
